Molecular target: Cytochrome P450 2D6 (Homo sapiens) (UniProt P10635)
Sequence (P10635 whole entry, looked up): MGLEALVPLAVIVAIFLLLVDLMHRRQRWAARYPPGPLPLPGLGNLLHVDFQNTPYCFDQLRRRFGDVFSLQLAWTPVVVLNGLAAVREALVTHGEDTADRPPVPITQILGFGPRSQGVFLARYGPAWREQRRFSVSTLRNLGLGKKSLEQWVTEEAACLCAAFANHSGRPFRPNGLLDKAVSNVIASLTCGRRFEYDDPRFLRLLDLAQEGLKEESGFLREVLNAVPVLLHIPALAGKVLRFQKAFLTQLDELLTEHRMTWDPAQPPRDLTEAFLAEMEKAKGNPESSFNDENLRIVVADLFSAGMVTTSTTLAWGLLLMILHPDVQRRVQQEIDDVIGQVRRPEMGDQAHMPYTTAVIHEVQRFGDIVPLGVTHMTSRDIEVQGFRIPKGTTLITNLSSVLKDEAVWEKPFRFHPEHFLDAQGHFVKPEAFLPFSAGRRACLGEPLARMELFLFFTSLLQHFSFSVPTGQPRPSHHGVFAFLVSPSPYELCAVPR
Test: Cytochrome P450 family 2 subfamily D member 6 (CYP2D6) small molecule antagonists: luciferase biochemical (cell-free) qHTS assay (AID 1645840); note: nearly all actives have a fitted effect of over 55% in size
Details: P450-Glo CYP2D6 enzyme, luciferin luminescence, 1 h; series mostly up to 57.4 µM
Results filed as inconclusive are left out. Active and inactive are the calls of the source. Calls come from the whole dose curve; as a rule, active = well fitted inhibition curve with a large enough effect in the repeat runs; inconclusive = weak or mixed curves; inactive = flat fitted curve, though single readings scatter.
Tick one outcome: t for active, f for inactive

What did the test return for `NC(=O)c1cccc(-c2cccc(OC(=O)NC3CCCCC3)c2)c1` ?
f

---

Assay: qHTS of pediatric cancer cell lines to identify multiple opportunities for drug repurposing: Primary screen for SK-N-MC cells (AID 1347093)
Conditions: SK-N-MC viability, CellTiter-Glo luminescence, 48 h; series mostly up to 46 µM
Results filed as inconclusive are left out. Calls of active or inactive are those of the source. The call rests on the fitted dose curve; in most records, active means well fitted cell-killing curve with a large enough effect; inconclusive means small, poorly fitted or top-dose-only effect; inactive means no such curve, though single readings can be large or run the other way. Starred links: 1 amine or outer side, 2 acyl side, 3 side chain; linkers in the order of their positions; H or OH if unused. Positions of bridges follow the written chain, without caps; N, C: chain ends. Non-standard residues stand in square brackets, D forms with d. Residues, ends and D or L forms follow the SMILES beside them. Chains are numbered I, II in the order given. Actinocin(9to1) = Cc1c2oc3c(C)ccc(C(=O)[*:1])c3nc-2c(C(=O)[*:2])c(N)c1=O; NMeV = CN[CH](C(=O)O)C(C)C; Sar = CNCC(=O)O
// one of TRUE = active, FALSE = inactive, no free text

Examples with answers:
Could you kindly confirm the outcome this assay logged for `NC(=O)c1ncn([C@@H]2O[C@H](CO)[C@@H](O)[C@@H]2O)c1O` ?
FALSE

What classification did `C[C@@H](Oc1ccc2[nH]nc(C=Cc3cnn(CCO)c3)c2c1)c1c(Cl)cncc1Cl` end up with in this test?
TRUE

What was the test verdict on Cc1c2oc3c(C)ccc(C(=O)NC4C(=O)NC(C(C)C)C(=O)N5CCCC5C(=O)N(C)CC(=O)N(C)C(C(C)C)C(=O)OC4C)c3nc-2c(C(=O)NC2C(=O)NC(C(C)C)C(=O)N3CCCC3C(=O)N(C)CC(=O)N(C)C(C(C)C)C(=O)OC2C)c(N)c1=O (configuration not stated) (I: TVP[Sar][NMeV] / II: TVP[Sar][NMeV]; ester I:1-I:C, II:1-II:C; linker I:N-II:N via Actinocin(9to1); configuration not given here) ?
TRUE

More entries:
// outcome(item) with item = `CC(=O)OC[C@@H]1O[C@@H](n2ccc(=O)[nH]c2=O)[C@H](OC(C)=O)[C@H]1OC(C)=O`
FALSE

Short answer needed: outcome of this test for `C=CC(=O)Nc1cc(NC(=O)c2ccc(C)c(NC(=O)c3ccno3)c2)cc(C(F)(F)F)c1` ?
TRUE

How was `CC(C)N1[N]C(=C2C=c3cc(O)ccc3=N2)c2c(N)ncnc21` classified in this test?
TRUE

Recorded test call requested for `COc1cc2c(Nc3ccc(Cl)c(Cl)c3F)ncnc2cc1OCC1C[C@@H]2CN(C)C[C@H]2C1`
TRUE

---

Experiment: Quantitative High-Throughput drug screen in 47 multiple myeloma cell lines against the NCATS MIPE library collection: INA6_PLB cell viability assay (AID 1918965; note: nearly all actives have a fitted effect of over 55% in size)
Conditions: INA6 myeloma viability, CellTiter-Glo ATP luminescence, 48 h; series mostly up to 45.8 µM
Results filed as inconclusive are left out. Active and inactive are the calls of the source. Calls follow the shape of the dose curve; as a rule, active = well fitted cell-killing curve with a large enough effect; inconclusive = small, poorly fitted or top-dose-only effect, or effect the other way; inactive = no such curve, though single readings can be large or run the other way.
Assign a class; possible classes are Yes for active, No for inactive

Test call, this molecule: `Cc1cc(Nc2ncc3c(n2)N(C)C(=O)N(c2cc(NC(=O)c4cccc(C(F)(F)F)c4)ccc2C)C3)n(C)n1`
Yes

Kindly provide the recorded test outcome for the following molecule: `CO[C@@H]1[C@@H](O)[C@H](O)[C@@H](n2c3c(Cl)cccc3c3c4c(c5c6cccc(Cl)c6[nH]c5c32)C(=O)NC4=O)O[C@@H]1CO`
Yes

How was `C[N+](C)([O-])CCNc1ccc(NCC[N+](C)(C)[O-])c2c1C(=O)c1c(O)ccc(O)c1C2=O` classified in this test?
Yes

Outcome? `Cn1cc(-c2cnn3c(N)c(Br)c([C@H]4CCCNC4)nc23)cn1`
Yes

What did this assay record as the result for `CC(C)Oc1ccc(C(=O)N[C@H](CNC(=O)CN(C)C)Cc2ccc(-c3cn4cccc([C@H](C)O)c4n3)cc2)cc1Cl` ?
Yes

New cases:
What is the recorded call for this molecule in the test? C=C1CCC2[C@](C)(CO)C(O)CC[C@]2(C)C1CC=C1C(=O)OCC1O (stereo not given in full)
No

# lookup: test call for `CCOc1cc2c(c(F)c1OCC)C(=N)N(CC(=O)c1cc(N3CCOCC3)c(OC)c(C(C)(C)C)c1)C2`
Yes

Per the records of this test, what outcome belongs to `CC(=O)OCC(=O)[C@@]12N=C(C)O[C@H]1C[C@H]1[C@@H]3CCC4=CC(=O)C=C[C@]4(C)[C@@H]3[C@@H](O)C[C@@]12C` ?
Yes

Returns: the outcome recorded for `COc1cc(OC)c(C=CS(=O)(=O)Cc2ccc(OC)c(NCC(=O)O)c2)c(OC)c1` in this assay.
Yes

Please state the recorded outcome for this molecule: `Cc1cnc(Nc2ccc(N3CCN(C)CC3)cc2)nc1Nc1cccc(S(=O)(=O)NC(C)(C)C)c1`
Yes

Which outcome was assigned to `Cc1cnc(Nc2ccc(CN3CCOCC3)cc2)nc1Nc1cccc(S(=O)(=O)NC(C)(C)C)c1` in this test?
Yes

Could you please tell me the result logged for `CC(C)N1[N]C(=C2C=c3cc(O)ccc3=N2)c2c(N)ncnc21` in this assay?
Yes

Check the results log: what was the call for `CS(=O)(=O)N1CCc2c(-c3cnc(N)nc3)nc(N3CCOCC3)nc21` ?
Yes

Dear all, I need the recorded test outcome for `c1cncc(CN2CCC(n3ncc4c(N5CCOCC5)nc(-c5ccc6[nH]ccc6c5)nc43)CC2)c1` , thank you.
Yes

# lookup: test call for `CON=C(C(=O)N[C@@H]1C(=O)N2C(C(=O)O)=C(Cn3ccc(=N)n3CCO)CS[C@H]12)c1csc(N)n1`
No

Just curious, what result did C[C@@H]1C(=O)O[C@H]2CC34[C@H]5C[C@@H](C(C)(C)C)C36[C@H](OC(=O)[C@@H]6O)O[C@@]4(C(=O)O5)[C@]21O (stereo not given in full) get here?
No

Could you check what this test reported for `C=C1C[C@@]2(O)O[C@@]3(C[C@H]2C(C)C)[C@H](C)CC[C@H]13` ?
No

Dear all, I need the recorded test outcome for `O=C(CCCCCCC(=O)Nc1cccnc1)NO` , thank you.
Yes

Can you look up the reported call for `Cn1cc(-c2ccc3ncc(Cc4ccc5ncccc5c4)n3n2)cn1` for me?
Yes

Please state the recorded outcome for this molecule: `COC(=O)[C@@H]1CC2=CC(=O)CC[C@]2(C)[C@@]23O[C@@H]2C[C@@]2(C)[C@H](CC[C@@]24CCC(=O)O4)[C@@H]13`
No

What did this assay record as the result for CC1=C(C(=O)Nc2cc3cn[nH]c3cc2F)C(c2ccc(Cl)cc2F)N=C(c2ccnc(Cl)c2)N1 (stereo not given) ?
Yes

---

Assay: qHTS of pediatric cancer cell lines to identify multiple opportunities for drug repurposing: Confirmatory screen for NB1643 cells (AID 1347109); note: nearly all actives have a fitted effect of over 45% in size
Conditions: NB1643 neuroblastoma cell viability; series mostly up to 45.9 µM
Results filed as inconclusive are left out. The source made the active and inactive calls. Calls follow the shape of the dose curve; as a rule, active = well fitted cell-killing curve with a large enough effect; inconclusive = small, poorly fitted or top-dose-only effect, or effect the other way; inactive = no such curve, though single readings can be large or run the other way. Non-standard residues stand in square brackets, D forms with d. Residues, ends and D or L forms follow the SMILES beside them. *: point of attachment. Nva = CCC[C@H](N)C(=O)O; Cbz = O=C(OCc1ccccc1)*
Output constraint: value belongs to active, inactive

A selection of reference data follows.
I'd appreciate the recorded outcome for `C=Cc1c(C)c2cc3nc(cc4[nH]c(cc5nc(cc1[nH]2)C(C)=C5CCC(=O)O)c(CCC(=O)OC)c4C)[C@@]1(C)C3=CC=C(C(=O)OC)[C@H]1C(=O)OC` from this test.
inactive

What did the test return for `Cn1cc(CNCC2CCN(c3ncc(C(=O)NO)cn3)CC2)c2ccccc21` ?
active

Please share the test call associated with `Cc1cnc(Nc2ccc(CN3CCOCC3)cc2)nc1Nc1cccc(S(=O)(=O)NC(C)(C)C)c1` .
active

GET /call?item= C#CCC(Cc1cnc2nc(N)nc(N)c2n1)c1ccc(C(=O)N[C@@H](CCC(=O)O)C(=O)O)cc1 (stereo not given in full) returns the recorded outcome of this test.
inactive

Please share the test call associated with CCC[C@@H](C=O)NC(=O)[C@H](CC(C)C)NC(=O)[C@H](CC(C)C)NC(=O)OCc1ccccc1 (Cbz-Leu-Leu-[Nva]-aldehyde) .
active

Please let me know the test result on file for `COc1cc(OC)c(C=CS(=O)(=O)Cc2ccc(OC)c(NCC(=O)O)c2)c(OC)c1` .
active

Outcome logged for `COc1cccc2c1C(=O)c1c(O)c3c(c(O)c1C2=O)C[C@@](O)(C(=O)CO)C[C@@H]3O[C@H]1C[C@H](N)[C@@H](O)[C@H](C)O1` in this assay:
active

Please state the recorded outcome for this compound: `O=C(C=CC#Cc1cccc(NS(=O)(=O)c2ccccc2)c1)NO`
active

Further cases:
Please indicate how the test categorized `CC1(C)O[C@@H]2C[C@H]3[C@@H]4CCC5=CC(=O)C=C[C@]5(C)[C@@H]4[C@@H](O)C[C@]3(C)[C@]2(C(=O)CO)O1` .
inactive

Could you please tell me the result logged for `CS[C@H]1SC[C@@H]2C(=O)N(C)[C@H](C(C)C)C(=O)OC[C@H](NC(=O)c3cnc4ccccc4n3)C(=O)N[C@H](C)C(=O)N(C)[C@@H]1C(=O)N(C)[C@H](C(C)C)C(=O)OC[C@H](NC(=O)c1cnc3ccccc3n1)C(=O)N[C@H](C)C(=O)N2C` in this assay?
inactive

Which outcome was assigned to `C[C@H]1[C@@H](OC(=O)CCC(=O)O)O[C@@H]2O[C@@]3(C)CC[C@@H]4[C@H](C)CC[C@@H]1[C@@]24OO3` in this test?
active

Outcome? `CN[C@H]1[C@@H](O)[C@@H]2O[C@@H]3O[C@H](C)CC(=O)[C@]3(O)O[C@@H]2[C@@H](NC)[C@H]1O`
inactive
